Data origin, for the record: patent USRE47221E1

# key: entry, value: IC50
# TARGET SYSTEM: Jak3 (Homo sapiens, UniProt P52333)
# Construct: Jak3 enzyme (aa 811-1103); expressed in SF9 cells as a GST fusion; GST; made in house; host or cells: SF9 insect cells
# Sequence (P52333 811-1103): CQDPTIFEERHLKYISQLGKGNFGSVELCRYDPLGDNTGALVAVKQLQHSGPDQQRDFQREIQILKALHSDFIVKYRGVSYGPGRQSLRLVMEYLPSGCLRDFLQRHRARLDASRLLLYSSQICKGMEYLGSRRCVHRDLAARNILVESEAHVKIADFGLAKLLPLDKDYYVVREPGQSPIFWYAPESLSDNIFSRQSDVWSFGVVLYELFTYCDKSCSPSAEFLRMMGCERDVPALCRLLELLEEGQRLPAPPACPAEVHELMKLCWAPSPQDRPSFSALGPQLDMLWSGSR
# ASSAY INFO: Jak3 enzyme data for selected compounds
# Format: biochemical

Worked examples, 5 compounds total:
COMPOUND	IC50
CC[C@@H]1C[C@H](NS(=O)(=O)CCN2CCC(F)(F)CC2)C[C@@H]1c1nnc2cnc3[nH]ccc3n12 [D.1.60]	> 1000 nM
CC[C@@H]1C[C@@H](Oc2ccc(C#N)cn2)C[C@@H]1c1nnc2cnc3[nH]ccc3n12 (racemic) [D.2.22]	100 to 1000 nM
C[C@@H]1C[C@H](Nc2cnc(C#N)cn2)C[C@H]1c1cnc2cnc3[nH]ccc3n12 (single isomer, unassigned) [AA.1.18]	< 100 nM
O=C(N1CCC[C@@H](c2cnc3cnc4[nH]ccc4n23)C1)N1CC(F)(F)C1 (single isomer, unassigned) [AA.1.6]	< 100 nM
O=C(C1CC(F)(F)C1)N1CCC[C@@H](c2ncc3cnc4[nH]ccc4n23)C1 [H.4.1]	100 to 1000 nM

Query string: Quote IC50 with test system Jak3 (Homo sapiens, UniProt P52333) for CC[C@@H]1C[C@H](NS(=O)(=O)C2CC2)C[C@]1(F)c1nnc2cnc3[nH]ccc3n12 (single isomer, unassigned) [AA.1.43]
Result string: < 100 nM

Query string: Determine reported IC50 for C[C@@H]1CCN(C(=O)N2CC[C@H](C#N)C2)C[C@@H]1c1ncc2cnc3[nH]ccc3n12 (racemic) [J.2.1] ; test system: Jak3 (Homo sapiens, UniProt P52333).
Result string: < 100 nM

----------
# TARGET SYSTEM: Jak3 (Homo sapiens, UniProt P52333)
# Construct: Jak3 enzyme (aa 811-1103); GST
# ASSAY INFO: Jak3 enzyme data for selected compounds
REPORTED METRIC: IC50

As a guide, the following entries are already answered.
MOLECULE	IC50
CC[C@H]1C[C@H](OCc2cccc(C#N)c2)C[C@H]1c1nnc2cnc3[nH]ccc3n12 (single isomer, unassigned) [AA.1.100]	> 1000 nM
CC[C@@H]1C[C@H](OCC2CCOCC2)C[C@H]1c1nnc2cnc3[nH]ccc3n12 (single isomer, unassigned) [AA.1.66]	> 1000 nM
C[C@@H]1CCN(C(=O)N2CCCC2)C[C@@H]1c1ncc2cnc3[nH]ccc3n12 (racemic) [I.2.1]	< 100 nM
CC[C@@H]1C[C@@H](Oc2cnc(C#N)cn2)C[C@@H]1c1nnc2cnc3[nH]ccc3n12 (single isomer, unassigned) [AA.1.33]	100 to 1000 nM
CC[C@@H]1C[C@@H](OCCC(F)(F)F)C[C@@H]1c1nnc2cnc3[nH]ccc3n12 (relative stereo) [AA.1.107]	< 100 nM
C[C@@H]1C[C@H](NS(=O)(=O)N2CCC(F)(F)C2)C[C@@H]1c1ncc2cnc3[nH]ccc3n12 [D.1.80]	< 100 nM

Query string: Please supply the value of reported IC50 for the item CC[C@@H]1C[C@H](NS(=O)(=O)CCn2nccn2)C[C@@H]1c1nnc2cnc3[nH]ccc3n12 [D.1.59]
Result string: 100 to 1000 nM

Query string: Recall and state the measured IC50 for C[C@@H]1C[C@H](NS(=O)(=O)NCCO)C[C@@H]1c1cnc2cnc3[nH]ccc3n12 (single isomer, unassigned) [AA.1.81] .
Result string: < 100 nM

Query string: Determine its reported IC50: N#Cc1ccc(N[C@@H]2CC[C@@H](c3ncc4cnc5[nH]ccc5n34)C2)cc1 (single isomer, unassigned) [AA.1.3]
Result string: 100 to 1000 nM

Query string: Give a short answer stating reported IC50 for N#CC1CN(C(=O)N2CCC[C@@H](c3ncc4cnc5[nH]ccc5n34)C2)C1 [J.3.4] .
Result string: < 100 nM
